Ref: ChEMBL document CHEMBL4507326

Target: ALK tyrosine kinase receptor (Homo sapiens, UniProt Q9UM73)
Sequence (Q9UM73 whole entry): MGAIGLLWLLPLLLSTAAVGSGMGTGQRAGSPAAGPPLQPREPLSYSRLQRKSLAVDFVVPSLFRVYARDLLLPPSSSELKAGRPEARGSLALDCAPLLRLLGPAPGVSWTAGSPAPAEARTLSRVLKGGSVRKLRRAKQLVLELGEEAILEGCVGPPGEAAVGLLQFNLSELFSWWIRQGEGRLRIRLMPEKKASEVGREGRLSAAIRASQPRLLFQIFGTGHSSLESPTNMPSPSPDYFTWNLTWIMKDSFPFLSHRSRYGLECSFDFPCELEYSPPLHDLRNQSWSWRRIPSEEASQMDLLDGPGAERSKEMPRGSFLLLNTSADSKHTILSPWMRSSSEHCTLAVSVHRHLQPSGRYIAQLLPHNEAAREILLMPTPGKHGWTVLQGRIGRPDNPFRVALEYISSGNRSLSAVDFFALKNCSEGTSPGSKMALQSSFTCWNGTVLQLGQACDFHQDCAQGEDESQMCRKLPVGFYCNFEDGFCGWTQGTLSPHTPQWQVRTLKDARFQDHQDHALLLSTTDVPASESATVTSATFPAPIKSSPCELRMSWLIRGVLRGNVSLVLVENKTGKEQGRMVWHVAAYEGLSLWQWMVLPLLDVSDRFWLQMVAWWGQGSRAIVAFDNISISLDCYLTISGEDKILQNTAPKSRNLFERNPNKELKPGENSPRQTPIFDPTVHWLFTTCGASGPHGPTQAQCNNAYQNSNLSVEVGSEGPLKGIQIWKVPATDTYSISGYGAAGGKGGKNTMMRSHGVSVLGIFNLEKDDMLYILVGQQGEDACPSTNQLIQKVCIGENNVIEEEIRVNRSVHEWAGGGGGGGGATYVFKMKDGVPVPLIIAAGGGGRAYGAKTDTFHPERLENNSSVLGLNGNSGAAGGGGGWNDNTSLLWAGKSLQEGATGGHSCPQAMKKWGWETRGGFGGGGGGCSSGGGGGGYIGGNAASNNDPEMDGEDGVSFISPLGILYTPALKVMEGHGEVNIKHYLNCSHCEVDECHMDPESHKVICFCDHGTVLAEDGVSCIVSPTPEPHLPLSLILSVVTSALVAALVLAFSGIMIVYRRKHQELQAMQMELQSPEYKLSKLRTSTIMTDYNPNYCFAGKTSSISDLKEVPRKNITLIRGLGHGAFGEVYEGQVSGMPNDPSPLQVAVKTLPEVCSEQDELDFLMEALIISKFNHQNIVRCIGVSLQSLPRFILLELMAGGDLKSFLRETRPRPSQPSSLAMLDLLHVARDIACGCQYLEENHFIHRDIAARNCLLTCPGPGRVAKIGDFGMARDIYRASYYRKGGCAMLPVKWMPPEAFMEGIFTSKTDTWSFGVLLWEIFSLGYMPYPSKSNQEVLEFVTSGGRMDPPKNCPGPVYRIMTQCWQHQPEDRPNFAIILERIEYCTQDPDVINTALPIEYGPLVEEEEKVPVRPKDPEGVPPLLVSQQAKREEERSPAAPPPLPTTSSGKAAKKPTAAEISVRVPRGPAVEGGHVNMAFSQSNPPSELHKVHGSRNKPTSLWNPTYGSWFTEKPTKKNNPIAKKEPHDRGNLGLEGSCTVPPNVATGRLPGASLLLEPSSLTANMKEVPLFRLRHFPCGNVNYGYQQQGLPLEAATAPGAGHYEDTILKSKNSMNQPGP
recorded_endpoint: pIC50
One number for each entry, as −log10 of the molar value.

// field: pIC50; key: CN1C(=O)[C@@H](N2CCc3c(nn(Cc4ccccc4)c3Br)C2=O)COc2ccccc21 [TP-030-2] ; value = 6.00

* * *

Biological target: Serine/threonine-protein kinase Nek3 (Homo sapiens)
Sequence (P51956 whole entry): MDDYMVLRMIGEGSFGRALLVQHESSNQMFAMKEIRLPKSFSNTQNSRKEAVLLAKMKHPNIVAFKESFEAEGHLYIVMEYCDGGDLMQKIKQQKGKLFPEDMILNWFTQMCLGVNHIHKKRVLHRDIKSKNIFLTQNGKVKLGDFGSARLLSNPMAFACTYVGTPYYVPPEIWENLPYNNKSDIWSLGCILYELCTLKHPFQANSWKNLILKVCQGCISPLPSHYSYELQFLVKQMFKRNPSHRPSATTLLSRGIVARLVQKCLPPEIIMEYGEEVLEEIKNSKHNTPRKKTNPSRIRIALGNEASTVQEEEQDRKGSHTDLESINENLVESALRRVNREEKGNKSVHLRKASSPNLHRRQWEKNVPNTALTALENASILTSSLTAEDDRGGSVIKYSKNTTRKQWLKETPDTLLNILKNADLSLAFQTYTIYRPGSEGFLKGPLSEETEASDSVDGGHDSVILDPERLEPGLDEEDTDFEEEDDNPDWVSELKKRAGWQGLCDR
recorded_endpoint: IC50 (µM)
Numbers only, in µM.

Field IC50 (entry CN1C(=O)[C@@H](N2CCc3c(nn(Cc4ccccc4)c3Br)C2=O)COc2ccccc21 ) reads 1

* * *

Target: Ephrin type-A receptor 3 (Homo sapiens, UniProt P29320)
Sequence (P29320 whole entry): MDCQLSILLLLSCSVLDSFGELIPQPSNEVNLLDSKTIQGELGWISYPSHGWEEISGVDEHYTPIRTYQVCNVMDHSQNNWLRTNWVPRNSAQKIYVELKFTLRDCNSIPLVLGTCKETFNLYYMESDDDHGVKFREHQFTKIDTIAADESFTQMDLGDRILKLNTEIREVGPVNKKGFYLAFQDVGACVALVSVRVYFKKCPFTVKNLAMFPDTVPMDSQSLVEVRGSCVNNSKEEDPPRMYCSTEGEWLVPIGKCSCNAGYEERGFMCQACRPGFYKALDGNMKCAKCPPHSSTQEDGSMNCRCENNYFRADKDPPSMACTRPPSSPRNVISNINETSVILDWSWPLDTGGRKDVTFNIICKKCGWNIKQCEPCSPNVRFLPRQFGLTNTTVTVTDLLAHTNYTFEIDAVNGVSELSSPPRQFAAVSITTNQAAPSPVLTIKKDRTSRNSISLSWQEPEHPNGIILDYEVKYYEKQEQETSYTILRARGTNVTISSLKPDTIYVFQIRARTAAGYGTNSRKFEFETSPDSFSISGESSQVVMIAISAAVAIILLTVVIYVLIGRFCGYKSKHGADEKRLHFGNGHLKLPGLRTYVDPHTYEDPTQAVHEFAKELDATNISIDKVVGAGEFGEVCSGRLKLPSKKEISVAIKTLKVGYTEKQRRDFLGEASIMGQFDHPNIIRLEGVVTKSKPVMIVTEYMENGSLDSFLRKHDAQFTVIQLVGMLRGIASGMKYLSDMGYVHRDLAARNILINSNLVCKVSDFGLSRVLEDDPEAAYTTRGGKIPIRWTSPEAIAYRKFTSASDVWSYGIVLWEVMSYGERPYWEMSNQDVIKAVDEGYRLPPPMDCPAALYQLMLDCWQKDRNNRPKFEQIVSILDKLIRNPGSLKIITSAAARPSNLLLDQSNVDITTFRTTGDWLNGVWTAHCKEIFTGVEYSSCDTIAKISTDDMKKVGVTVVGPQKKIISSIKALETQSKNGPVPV
recorded_endpoint: IC50 (nM)
Answers are plain numbers, in nM.

Measured IC50, CN1C(=O)[C@@H](N2CCc3c(nn(Cc4ccccc4)c3Br)C2=O)COc2ccccc21 [TP-030-2] : 1000

* * *

Molecular target: Serine/threonine-protein kinase ICK (Homo sapiens, UniProt Q9UPZ9)
Sequence (Q9UPZ9 whole entry): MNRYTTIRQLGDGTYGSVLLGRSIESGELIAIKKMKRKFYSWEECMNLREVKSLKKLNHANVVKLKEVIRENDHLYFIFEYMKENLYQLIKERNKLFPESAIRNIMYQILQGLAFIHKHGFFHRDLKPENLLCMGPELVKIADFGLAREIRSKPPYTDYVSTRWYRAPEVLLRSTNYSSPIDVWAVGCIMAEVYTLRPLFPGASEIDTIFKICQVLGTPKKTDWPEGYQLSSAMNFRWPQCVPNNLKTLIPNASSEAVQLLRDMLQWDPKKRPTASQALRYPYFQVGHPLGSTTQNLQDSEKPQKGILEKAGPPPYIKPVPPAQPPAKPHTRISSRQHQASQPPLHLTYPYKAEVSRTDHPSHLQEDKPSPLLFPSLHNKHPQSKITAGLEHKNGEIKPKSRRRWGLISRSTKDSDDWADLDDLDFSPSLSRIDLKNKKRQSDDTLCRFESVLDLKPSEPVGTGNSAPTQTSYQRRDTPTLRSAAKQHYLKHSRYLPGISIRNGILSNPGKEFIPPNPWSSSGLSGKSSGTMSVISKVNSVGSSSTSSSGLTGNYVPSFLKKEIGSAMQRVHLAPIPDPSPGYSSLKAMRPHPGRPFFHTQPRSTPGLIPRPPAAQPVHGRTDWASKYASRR
recorded_endpoint: IC50
Enter the number, and then the unit.

Reported IC50 of CN1C(=O)[C@@H](N2CCc3c(nn(Cc4ccccc4)c3Br)C2=O)COc2ccccc21 : 1 µM
